Reference source for all entries: paper PMC5540273

system: MLK3; conditions: concentration: 1 μM, replicates: in singlicate; n = 1;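 note: KINOMEscan kinase panel screen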
ENDPOINT_NAME: %Inh (%)

[
  {
    "INPUT_SMILES": "COc1cc2nccc(Nc3cccc(Oc4ccccc4)c3)c2cc1OC.Cl",
    "VALUE_UNITS": "%",
    "REPORTED_MEASUREMENT": 11
  },
  {
    "INPUT_SMILES": "Nc1n[nH]c2ncc(-c3ccccc3)cc12",
    "VALUE_UNITS": "%",
    "REPORTED_MEASUREMENT": 0
  },
  {
    "INPUT_SMILES": "Nc1n[nH]c2nnc(-c3ccccc3)c(-c3ccccc3)c12",
    "VALUE_UNITS": "%",
    "REPORTED_MEASUREMENT": 8
  },
  {
    "INPUT_SMILES": "CCS(=O)(=O)c1ccc(OC)c(Nc2ncc(-c3ccc(F)cc3)o2)c1.Cl",
    "VALUE_UNITS": "%",
    "REPORTED_MEASUREMENT": 6
  },
  {
    "INPUT_SMILES": "Cc1nnc(-c2ccc(C)c(-c3ccc(C(=O)O)cc3)c2)o1",
    "VALUE_UNITS": "%",
    "REPORTED_MEASUREMENT": 0
  },
  {
    "INPUT_SMILES": "COc1ccc(-c2coc3ccc(-c4nnc(SCc5cccc(C#N)c5)o4)cc23)cc1",
    "VALUE_UNITS": "%",
    "REPORTED_MEASUREMENT": 11
  },
  {
    "INPUT_SMILES": "Cl.NS(=O)(=O)c1cccc(Nc2cc(-c3ccc(F)cc3)n[nH]2)c1",
    "VALUE_UNITS": "%",
    "REPORTED_MEASUREMENT": 0
  },
  {
    "INPUT_SMILES": "COc1cc2ncn(-c3cc(OCc4ccc(S(C)(=O)=O)cc4)c(C(N)=O)s3)c2cc1OC",
    "VALUE_UNITS": "%",
    "REPORTED_MEASUREMENT": 0
  },
  {
    "INPUT_SMILES": "COc1ccc(-c2cc3c(C)nc(N)nc3n([C@H]3CC[C@H](OCCO)CC3)c2=O)cn1",
    "VALUE_UNITS": "%",
    "REPORTED_MEASUREMENT": 3
  },
  {
    "INPUT_SMILES": "Cc1nc(N(C)[C@H]2CN(C(=O)CC#N)CC[C@H]2C)c2cc[nH]c2n1",
    "VALUE_UNITS": "%",
    "REPORTED_MEASUREMENT": 0
  },
  {
    "INPUT_SMILES": "Cc1ccccc1COc1cc(-n2cnc3cc(Cl)ccc32)sc1C(N)=O",
    "VALUE_UNITS": "%",
    "REPORTED_MEASUREMENT": 0
  },
  {
    "INPUT_SMILES": "COc1ccc(-c2cc3c(C)nc(N)nc3n([C@H]3CC[C@H](O)CC3)c2=O)cn1",
    "VALUE_UNITS": "%",
    "REPORTED_MEASUREMENT": 0
  },
  {
    "INPUT_SMILES": "COc1cc2ncn(-c3cc(OCCCc4ccccc4)c(C(N)=O)s3)c2cc1OC",
    "VALUE_UNITS": "%",
    "REPORTED_MEASUREMENT": 8
  },
  {
    "INPUT_SMILES": "O=C1NC(=O)C(c2ccccc2)=C1Nc1cccc(O)c1",
    "VALUE_UNITS": "%",
    "REPORTED_MEASUREMENT": 6
  },
  {
    "INPUT_SMILES": "O=C(Nc1n[nH]c2nc(-c3ccccc3)c(Br)cc12)C1CC1",
    "VALUE_UNITS": "%",
    "REPORTED_MEASUREMENT": 22
  },
  {
    "INPUT_SMILES": "Nc1nc(N)c2nc(-c3ccccc3)[nH]c2n1",
    "VALUE_UNITS": "%",
    "REPORTED_MEASUREMENT": 40
  }
]
